- Target or system: IGFBP-5 (Homo sapiens)
- Construct: His-tag (N); T7-tag (pET-28a construct only) (N); made in house; host or cells: E. coli BL21
- Measurement notes: Detection of ligand binding by 15N-HSQC NMR titration
- Condition context: residue S85; read-out: ligand in DMSO KD
Readout label: pKd
Here pKd is given on a logarithmic scale as minus log10 of the concentration in mol/L.

Reported pKd, compound O=C(N[C@@H](Cc1ccc(OP(=O)(O)O)cc1)C(=O)O)OCC1c2ccccc2-c2ccccc21 : ____
2.86
